Reference source: the nanobody polyreactivity screen of Harvey et al. (2022)

- RUN_DESCRIPTION: yeast display, Sf9 membrane polyspecificity reagent, FACS + sequencing; frameworks hold sequencing errors
QUANTITY: polyreactivity (PSR sort gate)

Input: Param item = QVQLVESGGRLVQAGGSLRLSCAASGGTLTSNPMGWYRPAPGKERELVAAINKSGGSTYYADSVKGRFTISRDNAKNTVYLQMNSLKPEDTAVYYCAARFYYWVSGGLVKYNYWGQGTQVTVSS ; retrieve measured polyreactivity (PSR sort gate).
Output: high polyreactivity

Input: Param item = QVQLVESGGGLVQAGGSLRLSCDASGTTFVFNAMGWYRHAPGKERELVAAISFSSDTTHYADSVKGRFTISRDNAKNTVYLQMNSLKPEDTAVYYCAADFVGYARNWYYFCGQGTQVTVSS ; retrieve measured polyreactivity (PSR sort gate).
Output: low polyreactivity

Input: Param item = QVQIEESGGGLVQAGGSHRLSCAASGSTSYWYAMGWSRQAPRKERELVAAISSDDSTNYADSVKGRFTISRDNAKNTVYLQMNSLKPEDTAVYYFNREHYLIRYDYWGQGTQVTVSS ; retrieve measured polyreactivity (PSR sort gate).
Output: low polyreactivity

Input: Param item = QVQLLESGGGLVQAGGSLRLSCAASGSTFVGYAMGWYRQAPGKERELVAAISGSGTSTYYADSVKGRFTISRDNAKNTVYLQMNSLKPEDTAVYYCNADPIFVYSSYNYWGQGTQVTVSS ; retrieve measured polyreactivity (PSR sort gate).
Output: low polyreactivity

Now for another entry.
Input: Param item = QVQLVESGGGLVQAGGSLRLSCAASGRIFGWYAMGWYRQAPGKERELVAAITSGSRTSYADSVKGRFTISRDNAKNTVYLQMNSLKPVDTAVYYCNRVSHLDYYWGQGTQVTVSS ; retrieve measured polyreactivity (PSR sort gate).
Output: high polyreactivity
